Target: Homeodomain-interacting protein kinase 4 (Homo sapiens);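 also: values are mean percent inhibition of HIPK4 from the GSK PKIS kinase screen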
Sequence (whole entry): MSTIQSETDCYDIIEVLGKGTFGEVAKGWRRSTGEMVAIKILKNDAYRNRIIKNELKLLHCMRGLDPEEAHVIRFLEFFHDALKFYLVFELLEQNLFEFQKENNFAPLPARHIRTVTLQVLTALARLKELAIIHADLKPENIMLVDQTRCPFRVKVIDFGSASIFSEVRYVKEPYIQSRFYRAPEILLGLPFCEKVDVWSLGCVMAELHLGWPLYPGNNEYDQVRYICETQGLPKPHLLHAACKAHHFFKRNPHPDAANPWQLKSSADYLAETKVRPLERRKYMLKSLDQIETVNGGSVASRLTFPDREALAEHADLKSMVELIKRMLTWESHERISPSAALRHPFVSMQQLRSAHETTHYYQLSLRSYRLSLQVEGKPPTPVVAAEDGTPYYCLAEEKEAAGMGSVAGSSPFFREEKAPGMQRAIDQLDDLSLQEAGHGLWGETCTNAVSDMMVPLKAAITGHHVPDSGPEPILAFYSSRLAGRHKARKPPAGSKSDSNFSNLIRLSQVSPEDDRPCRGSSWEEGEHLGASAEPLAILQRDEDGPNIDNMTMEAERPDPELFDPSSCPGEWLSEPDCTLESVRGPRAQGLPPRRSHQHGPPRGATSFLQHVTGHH
Conditions: at 1 µM
MEASUREMENT LABEL: inhibition (%)

>  <INPUT SMILES>
Cc1ccc(NC(=O)c2ccnc(N3CCCC3)c2)cc1-c1ccc(C(=O)NCC2CC2)cc1

>  <MEASUREMENT LABEL>
inhibition

>  <UNIT LABEL>
%

>  <OBSERVED MEASUREMENT>
2.09

$$$$
>  <INPUT SMILES>
CCn1c(-c2nonc2N)nc2cncc(C(=O)N3CCNCC3)c21

>  <MEASUREMENT LABEL>
inhibition

>  <UNIT LABEL>
%

>  <OBSERVED MEASUREMENT>
0.6

$$$$
>  <INPUT SMILES>
CS(=O)(=O)CCN(CC#N)Cc1ccc(-c2ccc3ncnc(Nc4ccc(OCc5cccc(F)c5)c(Cl)c4)c3c2)o1

>  <MEASUREMENT LABEL>
inhibition

>  <UNIT LABEL>
%

>  <OBSERVED MEASUREMENT>
2.79

$$$$
>  <INPUT SMILES>
COc1cc(C)c(NC(=O)CN(C)C)cc1Nc1nc(Nc2cccc(F)c2C(N)=O)c2cc[nH]c2n1

>  <MEASUREMENT LABEL>
inhibition

>  <UNIT LABEL>
%

>  <OBSERVED MEASUREMENT>
63.4

$$$$
>  <INPUT SMILES>
CS(=O)(=O)Nc1ccc(N/C=C2\C(=O)Nc3ccccc32)cc1

>  <MEASUREMENT LABEL>
inhibition

>  <UNIT LABEL>
%

>  <OBSERVED MEASUREMENT>
4.82

$$$$
>  <INPUT SMILES>
CS(=O)(=O)CCNCc1ccc(-c2ccc3ncnc(Nc4ccc(OCc5cccc(F)c5)c(C(F)(F)F)c4)c3c2)o1

>  <MEASUREMENT LABEL>
inhibition

>  <UNIT LABEL>
%

>  <OBSERVED MEASUREMENT>
-0.51

$$$$
>  <INPUT SMILES>
Cc1ccc(C(=O)NC2CCCCC2)cc1-c1ccc(C(=O)NCC2CC2)cc1

>  <MEASUREMENT LABEL>
inhibition

>  <UNIT LABEL>
%

>  <OBSERVED MEASUREMENT>
3.16

$$$$
>  <INPUT SMILES>
O=C1Nc2ccc(C(=O)c3ccco3)cc2C1=Cc1cc(Cl)c(O)c(Cl)c1

>  <MEASUREMENT LABEL>
inhibition

>  <UNIT LABEL>
%

>  <OBSERVED MEASUREMENT>
32.9

$$$$
>  <INPUT SMILES>
COc1cc2ncn(-c3cc(OCc4ccccc4Cl)c(C(N)=O)s3)c2cc1OC

>  <MEASUREMENT LABEL>
inhibition

>  <UNIT LABEL>
%

>  <OBSERVED MEASUREMENT>
45.1

$$$$
